- measurement.target: Transcriptional regulator ERG (Homo sapiens) (UniProt P11308)
- Sequence (P11308 whole entry, looked up): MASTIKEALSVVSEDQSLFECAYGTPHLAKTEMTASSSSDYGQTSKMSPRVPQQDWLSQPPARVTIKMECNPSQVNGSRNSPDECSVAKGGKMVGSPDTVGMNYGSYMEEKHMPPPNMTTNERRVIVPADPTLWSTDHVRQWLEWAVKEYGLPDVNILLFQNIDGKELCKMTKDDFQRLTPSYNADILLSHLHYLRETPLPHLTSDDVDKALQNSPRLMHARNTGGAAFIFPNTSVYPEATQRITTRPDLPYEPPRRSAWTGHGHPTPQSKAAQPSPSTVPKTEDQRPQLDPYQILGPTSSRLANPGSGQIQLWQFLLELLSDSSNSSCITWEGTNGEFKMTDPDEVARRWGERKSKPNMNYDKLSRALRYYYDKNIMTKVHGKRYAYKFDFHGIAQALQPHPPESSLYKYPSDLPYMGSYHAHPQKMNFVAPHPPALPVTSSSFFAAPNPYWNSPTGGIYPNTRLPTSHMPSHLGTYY
- measurement.notes: qHTS for Small Molecule Inhibitors of the ERG Ets/DNA interaction: TR assay against cherry picks
- settings: ERG Ets domain-DNA fluorescence polarization, Texas red probe; series mostly up to 154 µM
Hit rate of the full screen: of about 1,200 compounds, fewer than 10 were called active. Not all results are given here.

{"columns": ["compound", "measurement.target", "outcome"],
 "data": [
  ["O=C(NCCCN1CCOCC1)c1ccc(CSc2ccc(Cl)cc2)cc1", "Transcriptional regulator ERG (Homo sapiens) (UniProt P11308)", "inactive"],
  ["CCC(=O)N1CCN(c2nc3ccc(Br)cc3s2)CC1", "Transcriptional regulator ERG (Homo sapiens) (UniProt P11308)", "inactive"],
  ["O=C(COc1ccc(-c2ccccc2)cc1)N1CCN(C(=O)c2cccs2)CC1", "Transcriptional regulator ERG (Homo sapiens) (UniProt P11308)", "inactive"],
  ["CC(=O)Nc1ccc(S(=O)(=O)N[C@@H](C)C(=O)N2CCN(C/C=C/c3ccccc3)CC2)cc1", "Transcriptional regulator ERG (Homo sapiens) (UniProt P11308)", "inactive"],
  ["CCOC(=O)C1=C(C)N(C[C@@H]2CC[C@@H](Cc3ccc(-c4ccccc4)cc3)O2)C(=O)NC1c1ccc([N+](=O)[O-])cc1 (stereo not given in full)", "Transcriptional regulator ERG (Homo sapiens) (UniProt P11308)", "inactive"],
  ["CCc1nnc2c(N3CCN(c4cccc(C(F)(F)F)c4)CC3)nc3ccccc3n12", "Transcriptional regulator ERG (Homo sapiens) (UniProt P11308)", "inactive"],
  ["Cc1ccc([N+](=O)[O-])c2c1C(N1CC(C)OC(C)C1)C(C)(C)O2 (stereo not given)", "Transcriptional regulator ERG (Homo sapiens) (UniProt P11308)", "inactive"],
  ["COc1cc(OC)c(N(C)S(=O)(=O)c2cccc(C(=O)NC(C)C3CC4CCC3C4)c2)cc1Cl (stereo not given)", "Transcriptional regulator ERG (Homo sapiens) (UniProt P11308)", "inactive"],
  ["O=C(O)CNC(=O)/C(=C\\c1ccc2c(c1)OCO2)NC(=O)c1ccc(Br)cc1", "Transcriptional regulator ERG (Homo sapiens) (UniProt P11308)", "inactive"],
  ["CCc1ccc(S(=O)(=O)NC2CC(C)(C)NC(C)(C)C2)cc1", "Transcriptional regulator ERG (Homo sapiens) (UniProt P11308)", "inactive"]
]}

----------
- measurement.target: Transcriptional regulator ERG (Homo sapiens)
- measurement.notes: qHTS for Small Molecule Inhibitors of the ERG Ets/DNA interaction: TR assay against cherry picks
- settings: ERG Ets domain-DNA fluorescence polarization, Texas red probe; series mostly up to 154 µM
The campaign covered roughly 1,200 compounds. Fewer than 10 were called active. The list is a sample of the results.
readout: outcome

{"columns": ["molecule", "result"],
 "data": [
  ["CC(=O)NCc1ccc(S(=O)(=O)N2CCN(c3ccccn3)CC2)cc1", "inactive"],
  ["Cc1cccc(NC(=O)c2cc3ccccc3nc2C)c1", "inactive"],
  ["O=C(CCNC(=O)c1ccccc1Cl)NCCCSc1ccccc1", "inactive"],
  ["Cc1ccc2c(COC(=O)c3ccccc3Br)cc(=O)oc2c1", "inactive"],
  ["Cc1ccccc1OCC(=O)Nc1ccc2[nH]ncc2c1", "inactive"],
  ["COc1ccccc1CN(C)C(=O)C(NC(=O)Cc1cccc2ccccc12)C(C)C (stereo not drawn)", "inactive"],
  ["COc1ccc([C@@H](NC(=O)OC(C)(C)C)C(=O)OC(C)(C)C)cc1", "inactive"],
  ["CN(C)c1ccc2c3c(ccc(N(C)C)c13)C(=O)OC2", "inactive"],
  ["Cc1ccc(CNC(=O)COc2ccc(S(=O)(=O)N3CCCC3)cc2)cc1", "inactive"],
  ["Oc1c(Cl)cc(Oc2cc(Cl)c(O)c(CN3CCOCC3)c2)cc1CN1CCOCC1", "inactive"],
  ["Cc1ccc(-c2[nH]c(-c3ccc(C(=O)O)cc3)nc2-c2ccccc2)cc1", "inactive"],
  ["CC(C)(C)SC(=O)CC1NS(=O)(=O)OC2CCCCC12 (stereo not drawn)", "inactive"],
  ["O=C(NNC(=O)c1sccc1-n1cccc1)Nc1ccccc1", "inactive"],
  ["CC1Cc2ccccc2N1CC(=O)Nc1ccc2c(c1)OCO2 (stereo not drawn)", "inactive"],
  ["CC(OC(=O)C1CCN(S(=O)(=O)c2ccccc2C(F)(F)F)CC1)C(=O)N(C)Cc1ccccc1 (stereo not drawn)", "inactive"],
  ["C[C@H](CO)N1C[C@H](C)[C@@H](CN(C)CC2CC2)Oc2c(NC(=O)C3CC3)cccc2C1=O", "inactive"],
  ["Cc1cccn2c(=O)cc(COc3ccc(NC(=O)C(C)C)cc3)nc12", "inactive"],
  ["O=C(/C=C/c1ccc([N+](=O)[O-])cc1)NCc1ccco1", "inactive"],
  ["CC(=O)Nc1ccc(SCC(=O)N(C)C2CCS(=O)(=O)C2)cc1 (stereo not drawn)", "inactive"],
  ["CC1(C)CC2CC(C)(CN2C(=O)c2ccc([N+](=O)[O-])cc2)C1 (stereo not drawn)", "inactive"],
  ["Cc1ccc(C(=O)Nc2ccc(C(=O)N/N=C/c3c[nH]c4ccccc34)cc2)cc1", "inactive"],
  ["COc1ccccc1CNC(=O)CCNC(=O)C1CCN(S(=O)(=O)c2ccccc2)CC1", "inactive"],
  ["OC(Cn1cnnc1)c1ccccc1 (stereo not drawn)", "inactive"]
]}
